Reference for the values: PubChem BioAssay (NCI)

# Tested on: MDA-MB-468 breast
# assay: NCI tumour cell line growth inhibition, 48 h; in the data active means GI50 below about 0.43 µM; inactive means the rest
Outcome codes: T for active, F for inactive

compound	category
O=C(Nc1ccc(Oc2cccc(F)c2)c(Cl)c1)c1cnccn1	F
N#CSCc1ccc(Cl)c(CSC#N)c1	T
Cc1ccc2c(n1)C(=O)C(Cl)=C(Nc1cccc(C(F)(F)F)c1)C2=O	F
COc1ccc(C2C(C#N)=C(N)Oc3c2sc2ccc(C)cc32)cc1 (stereo not given)	F
O1[As]2O[As]3O[As]1O[As](O2)O3	T
FC(F)(F)c1cc2c(Cl)ncnc2n1CCN1CCOCC1	F
C=C1CC[C@@H]2[C@](C)(COC(C)=O)[C@H](OC(C)=O)CC[C@@]2(C)[C@@H]1CC(Nc1ccc(S(=O)(=O)Nc2ccc(Cl)nn2)cc1)C1=CCOC1=O (stereo not given in full)	F
Nc1c(C(=O)c2cccc(C#CCO)c2)cnn1-c1ccc(F)cc1	F
COC(=O)Nc1nc2ccc(Oc3cccc(NC(=O)Nc4cc(C(F)(F)F)ccc4F)c3)cc2[nH]1	F
Cc1[nH]c2ccc(F)cc2c1-c1nc2c3cccnc3c3ncccc3c2[nH]1	T
COc1cnc2c(c1)C(=O)c1c-2n(CCCNC2=NCCS2)c(=O)c2cc(Cl)ccc12	T
CCC[CH2][Sn]1([CH2]CCC)[O]C2C(CO)OC(n3ccc(N)nc3=O)C2[O]1 (stereo not given)	F
c1ccc2[nH]c(-c3cc(-c4ccc5c(c4)OCO5)n[nH]3)nc2c1	F
COc1ccc(C(=O)/C=C/c2cccc(Nc3ccnc4cc(Cl)ccc34)c2)cc1	F
C#CCNCCN1C(=O)c2ccc3c4c(ccc(c24)C1=O)C(=O)N(CCNCC#C)C3=O	F
